Substrate: CC(=O)Oc1ccc([N+](=O)[O-])cc1
ASSAY_SUMMARY: purified protein
Assay type: biochemical, Pelagibacterium halotolerans
EXPERIMENTAL_CONDITIONS: 100 mM Tris-HCl pH 7.5, 30 °C, 0.05-4 mM substrate in acetonitrile
VALUE_TYPE: Km (µM)
Your answer is read as µM, so omit the unit and give the number.

// solved cases for Km follow
- PROTEIN: "PE8 (Pelagibacterium halotolerans B2; R83A) (protein, 6xHis fusion from pET28b in E. coli Rosetta (DE3), Ni-NTA and SEC; monomer; catalytic triad Ser118, Asp169, His201) MTEPVKLSGPMLPAVSGAAKSLVVLLHGYGSDGRDLIALGQFWRDSFPDTMFVAPNAPHVCGGNPFGYEWFPLDLERDRTLAALAGAETAHPVLDAFLADLWAQTGLGPADTILVGFSQGAMMALYTGLRLPEPLKAIIAFSGLIVAPEKLEAEIASKPPVLLIHGDLDDVVPVIGSETALPKLIDLGIDARLHISQGSGHTIAQDGLDTATAFLREIL"
  VALUE_UNIT: "µM"
  Km: 600
- PROTEIN: "PE8 (Pelagibacterium halotolerans B2) (protein, 6xHis fusion from pET28b in E. coli Rosetta (DE3), Ni-NTA and SEC; monomer; catalytic triad Ser118, Asp169, His201) MTEPVKLSGPMLPAVSGAAKSLVVLLHGYGSDGRDLIALGQFWRDSFPDTMFVAPNAPHVCGGNPFGYEWFPLDLERDRTLARLAGAETAHPVLDAFLADLWAQTGLGPADTILVGFSQGAMMALYTGLRLPEPLKAIIAFSGLIVAPEKLEAEIASKPPVLLIHGDLDDVVPVIGSETALPKLIDLGIDARLHISQGSGHTIAQDGLDTATAFLREIL"
  VALUE_UNIT: "µM"
  Km: 660
- PROTEIN: "PE8 (Pelagibacterium halotolerans B2; L73A) (protein, 6xHis fusion from pET28b in E. coli Rosetta (DE3), Ni-NTA and SEC; monomer; catalytic triad Ser118, Asp169, His201) MTEPVKLSGPMLPAVSGAAKSLVVLLHGYGSDGRDLIALGQFWRDSFPDTMFVAPNAPHVCGGNPFGYEWFPADLERDRTLARLAGAETAHPVLDAFLADLWAQTGLGPADTILVGFSQGAMMALYTGLRLPEPLKAIIAFSGLIVAPEKLEAEIASKPPVLLIHGDLDDVVPVIGSETALPKLIDLGIDARLHISQGSGHTIAQDGLDTATAFLREIL"
  VALUE_UNIT: "µM"
  Km: 530
- PROTEIN: "PE8 (Pelagibacterium halotolerans B2; R79A) (protein, 6xHis fusion from pET28b in E. coli Rosetta (DE3), Ni-NTA and SEC; monomer; catalytic triad Ser118, Asp169, His201) MTEPVKLSGPMLPAVSGAAKSLVVLLHGYGSDGRDLIALGQFWRDSFPDTMFVAPNAPHVCGGNPFGYEWFPLDLERDATLARLAGAETAHPVLDAFLADLWAQTGLGPADTILVGFSQGAMMALYTGLRLPEPLKAIIAFSGLIVAPEKLEAEIASKPPVLLIHGDLDDVVPVIGSETALPKLIDLGIDARLHISQGSGHTIAQDGLDTATAFLREIL"
  VALUE_UNIT: "µM"
  Km: 600

Now let's try a different one.
May I ask what Km has been recorded for PE8 (Pelagibacterium halotolerans B2; M122A) (protein, 6xHis fusion from pET28b in E. coli Rosetta (DE3), Ni-NTA and SEC; monomer; catalytic triad Ser118, Asp169, His201) MTEPVKLSGPMLPAVSGAAKSLVVLLHGYGSDGRDLIALGQFWRDSFPDTMFVAPNAPHVCGGNPFGYEWFPLDLERDRTLARLAGAETAHPVLDAFLADLWAQTGLGPADTILVGFSQGAAMALYTGLRLPEPLKAIIAFSGLIVAPEKLEAEIASKPPVLLIHGDLDDVVPVIGSETALPKLIDLGIDARLHISQGSGHTIAQDGLDTATAFLREIL ?
75
